The following binders are shown together with reported pKd values.
Biological target: T1, full-length IGSF8 (recombinant antigen of the SPR screen; IGSF8 target antigen of the phage panning) (human, UniProt Q969P0 28-579, limits assumed)
T1 sequence (looked up): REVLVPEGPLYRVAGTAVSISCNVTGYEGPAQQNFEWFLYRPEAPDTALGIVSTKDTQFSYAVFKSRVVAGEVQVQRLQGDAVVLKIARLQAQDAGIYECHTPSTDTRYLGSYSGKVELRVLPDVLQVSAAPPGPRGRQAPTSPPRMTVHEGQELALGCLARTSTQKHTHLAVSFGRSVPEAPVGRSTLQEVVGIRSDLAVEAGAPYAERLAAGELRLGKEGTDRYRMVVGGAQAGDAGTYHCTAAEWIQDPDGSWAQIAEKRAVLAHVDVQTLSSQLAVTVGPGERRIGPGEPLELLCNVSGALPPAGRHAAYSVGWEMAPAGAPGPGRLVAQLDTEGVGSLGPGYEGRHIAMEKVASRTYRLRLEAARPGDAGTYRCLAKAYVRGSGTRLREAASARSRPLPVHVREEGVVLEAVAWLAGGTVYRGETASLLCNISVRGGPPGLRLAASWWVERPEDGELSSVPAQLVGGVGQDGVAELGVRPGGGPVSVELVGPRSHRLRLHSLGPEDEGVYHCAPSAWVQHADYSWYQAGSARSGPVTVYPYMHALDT
Experiment: SPR, Biacore T100
# pKd = -log10(concentration in molar units)

* Antibody C33 (1C2) (antibody, V domains shown, also called mAb-1C2 (C33)) VH: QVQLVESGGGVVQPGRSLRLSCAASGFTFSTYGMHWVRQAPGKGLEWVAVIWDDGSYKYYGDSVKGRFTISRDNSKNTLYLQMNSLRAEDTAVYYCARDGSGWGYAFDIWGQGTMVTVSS VL: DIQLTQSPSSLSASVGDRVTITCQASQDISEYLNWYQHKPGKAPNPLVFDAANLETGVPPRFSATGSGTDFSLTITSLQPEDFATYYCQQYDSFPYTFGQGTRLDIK | 7.48
* Antibody C37 (3F12) (antibody, V domains shown, also called mAb-3F12(C37)) VH: EVQLVQSGGGLVKPGGSLRLSCAASGFTFSSYSMNWVRQAPGKGLEWVSSISSSSSYIYYADSVKGRFTISRDNAKNSLYLQMNSLRAEDTAVYYCAGRQYDFWSGWDWFDPWGQGTLVTVSS VL: DIQLTQSPSSLSASVGDRVTITCRASQSISTYLNWYQQKPGKAPKLLIHDASILQSGVPSRFSGSGSGTDFTLTISSLQAEDFATYYCQQSYSTLPYTFGQGTKVEIK | 7.65

Tell me the measured pKd of Antibody C38 (2B4) (antibody, V domains shown, also called mAb-2B4 (C38)) VH: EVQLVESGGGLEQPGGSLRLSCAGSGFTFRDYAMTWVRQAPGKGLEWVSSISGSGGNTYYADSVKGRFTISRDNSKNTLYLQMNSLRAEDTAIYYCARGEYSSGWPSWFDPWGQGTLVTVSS VL: EIVLTQSPSSLSASVGDRVTISCRASRTVGTFLNWYQQRPGKPPQALILGVSILEGGVSSRFSGAGSGTEFSLTISSLQPEDIGTYYCQQSHDVPRTFGQGTKVDLRR , please.
8.42

Item Antibody C36 (1B4) (antibody, V domains shown, also called mAb-1B4 (C36)) VH: EVQLLESGGGLVQPGGSLRLSCAASGFTFSSYAMSWVRQAPGKGLEWVSGITGSGGSTYYADSVKGRFTISRDNSKNTLYLQMNSLRAEDTAIYYCARGGALDIWGQGTMVTVSS VL: DIQMTQSPSSLSASVGDRVTITCRASQVIHNYLAWYKQKPGQAPKLLIYSASSLQSGVPSRFSGSGSGTDFTLTISSLQPEDFATYYCQQSYSTPLTFGGGTKVEIKR has what recorded pKd?
8.34
